Sourced from ChEMBL document CHEMBL3739379

System: Candida tropicalis
Experimental protocol: Antifungal activity against Candida tropicalis clinical isolate after 24 hrs by sabouraud dextrose broth based microdilution method
Type: functional
Each entry below carries its reported log10(MIC).
// stored as log10 of MIC expressed in µg/mL

Consider the reported log10(MIC) for these compounds:
O=C1c2ccccc2C(=O)N1CN1C(=O)CS/C1=N\N=C1CCCCCC1
1.51
O=C1CS/C(=N\N=C2CCCC2)N1Cc1cccc2ccccc12
0.90

Now for another entry.
Requested read-out log10(MIC), target or system Candida tropicalis, entry CC1CCC(=N/N=C2\SCC(=O)N2CN2C(=O)c3ccccc3C2=O)CC1 (stereo unspecified)
0.90

---

Experimental protocol: Cytotoxicity against human Hep2 cells assessed as cell survival at 100 ug/ml after 24 hrs by trypan blue exclusion test (reference value: 87 to 94%)
Type: cell-based, HEp-2
Measurement parameters: read-out: Survival
Assay endpoint: viability at 24 h, 100 ug/ml (%)
Return type: number; implicit unit %.

CC(C)=N/N=C1\SCC(=O)N1CN1C(=O)c2ccccc2C1=O
0
O=C1CS/C(=N\N=C2CCCC2)N1Cc1ccc([N+](=O)[O-])cc1
0
C/C(CC(C)C)=N\N=C1/SCC(=O)N1Cc1cccc2ccccc12
46
C/C(CC(C)C)=N\N=C1/SCC(=O)N1Cc1ccc([N+](=O)[O-])cc1
0
C/C(CC(C)C)=N\N=C1/SCC(=O)N1CN1C(=O)c2ccccc2C1=O
47

Now for another entry.
What viability at 24 h, 100 ug/ml value was documented for this compound, CCCCC/C(C)=N/N=C1\SCC(=O)N1Cc1ccc([N+](=O)[O-])cc1 ?
0

---

Experimental protocol: Cytotoxicity against human Hep2 cells assessed as cell survival after 24 hrs by trypan blue exclusion method
Format: cell-based, HEp-2
Assay endpoint: CC50 at 24 h (µg/mL)
Return type: number; implicit unit µg/mL.

Consider the reported CC50 at 24 h for these compounds:
CCCCC/C(C)=N/N=C1\SCC(=O)N1Cc1ccc([N+](=O)[O-])cc1
35
C/C(CC(C)C)=N\N=C1/SCC(=O)N1CN1C(=O)c2ccccc2C1=O
99
O=C1CS/C(=N\N=C2CCCC2)N1Cc1ccc([N+](=O)[O-])cc1
28

What CC50 at 24 h value was documented for this compound, C/C(CC(C)C)=N\N=C1/SCC(=O)N1Cc1ccc([N+](=O)[O-])cc1 ?
32

What CC50 at 24 h value was documented for this compound, C/C(CC(C)C)=N\N=C1/SCC(=O)N1Cc1cccc2ccccc12 ?
95

What CC50 at 24 h value was documented for this compound, CC(C)=N/N=C1\SCC(=O)N1CN1C(=O)c2ccccc2C1=O ?
22

---

Tested on: Candida tropicalis
Experimental protocol: Antifungal activity against Candida tropicalis clinical isolate after 24 hrs by sabouraud dextrose broth based microdilution method
Assay type: functional
Each entry below carries its reported log10 of MIC.
// stored as log10 of MIC expressed in µg/mL

Consider the reported log10 of MIC for these molecules:
CC1CC/C(=N\N=C2/SCC(=O)N2CN2C(=O)c3ccccc3C2=O)C1 (stereo unspecified)
0.90
O=C1c2ccccc2C(=O)N1CN1C(=O)CS/C1=N\N=C\c1cccc2ccccc12
2.11
C/C(=N\N=C1/SCC(=O)N1Cc1ccc([N+](=O)[O-])cc1)c1ccccn1
0.60
Clc1ccccc1C(c1ccccc1)(c1ccccc1)n1ccnc1 [CLOTRIMAZOLE]
0.30
CC1CCC(=N/N=C2\SCC(=O)N2Cc2ccc([N+](=O)[O-])cc2)CC1 (stereo unspecified)
1.51
C/C(=N\N=C1/SCC(=O)N1Cc1cccc2ccccc12)c1cccs1
0.30
CC1CCC/C1=N\N=C1/SCC(=O)N1Cc1cccc2ccccc12 (stereo unspecified)
0.30
O=C1CS/C(=N\N=C2CCCCCCC2)N1Cc1ccc([N+](=O)[O-])cc1
0.90

What log10 of MIC value was documented for this molecule, CCCC/C(CC)=N/N=C1\SCC(=O)N1Cc1cccc2ccccc12 ?
0.30

What log10 of MIC value was documented for this molecule, C/C(CC(C)C)=N\N=C1/SCC(=O)N1CN1C(=O)c2ccccc2C1=O ?
1.81

What log10 of MIC value was documented for this molecule, O=C1CS/C(=N\N=C\c2ccco2)N1Cc1cccc2ccccc12 ?
0.90
